# tgt: C-src kinase (Homo sapiens)
# Construct: made in house; host or cells: baculovirus infected insect cells
# Sequence (P12931 whole entry): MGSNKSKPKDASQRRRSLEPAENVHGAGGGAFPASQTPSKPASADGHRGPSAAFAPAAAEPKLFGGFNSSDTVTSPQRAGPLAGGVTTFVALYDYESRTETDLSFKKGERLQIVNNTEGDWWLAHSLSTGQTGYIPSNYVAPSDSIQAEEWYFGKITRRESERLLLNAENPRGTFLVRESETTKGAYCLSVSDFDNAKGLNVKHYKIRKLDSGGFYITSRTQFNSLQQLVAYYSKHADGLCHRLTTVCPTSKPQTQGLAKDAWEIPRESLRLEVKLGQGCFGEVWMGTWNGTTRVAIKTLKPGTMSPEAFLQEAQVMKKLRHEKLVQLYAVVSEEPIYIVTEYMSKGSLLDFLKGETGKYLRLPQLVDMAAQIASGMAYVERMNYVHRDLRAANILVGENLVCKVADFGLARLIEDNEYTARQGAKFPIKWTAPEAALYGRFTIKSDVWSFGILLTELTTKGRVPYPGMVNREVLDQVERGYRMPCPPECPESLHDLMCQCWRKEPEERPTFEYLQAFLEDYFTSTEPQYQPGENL
# assayInfo: C-src kinase assay (poly GluTyr substrate)
# Type: biochemical
# assayContext: read-out: C-src TK % Inhibition at 50 µM
Use 40% as the dividing line for inhibition at 50 µM, with the line itself on the Y side and lower values as N.

{"columns": ["molecule", "tgt", "classAssignment"],
 "data": [
  ["CCOc1ccc(Nc2ncc3cc(-c4c(Cl)cccc4Cl)c(=O)n(CC)c3n2)cc1", "C-src kinase (Homo sapiens)", "N"],
  ["CSc1ncc2cc(-c3c(Cl)cccc3Cl)c(=O)n(C)c2n1", "C-src kinase (Homo sapiens)", "N"],
  ["CN1CCN(CCCCCNc2ncc3cc(-c4c(Cl)cccc4Cl)c(=O)n(C)c3n2)CC1", "C-src kinase (Homo sapiens)", "Y"],
  ["Cn1c(=O)c(-c2c(Cl)cccc2Cl)cc2cnc(NCCCCCC(=O)OC(C)(C)C)nc21", "C-src kinase (Homo sapiens)", "Y"],
  ["CCn1c(=O)c(-c2c(Cl)cccc2Cl)cc2cnc(Nc3cc(OC)c(OC)c(OC)c3)nc21", "C-src kinase (Homo sapiens)", "Y"],
  ["CCn1c(=O)c(-c2ccncc2)cc2cnc(Nc3ccccc3)nc21", "C-src kinase (Homo sapiens)", "N"],
  ["CCn1c(=O)c(-c2ccc(-c3ccccc3)cc2)cc2cnc(Nc3ccccc3)nc21", "C-src kinase (Homo sapiens)", "N"],
  ["Nc1ncc2cc(-c3c(Cl)cccc3Cl)c(=O)n(Cc3ccncc3)c2n1", "C-src kinase (Homo sapiens)", "Y"],
  ["CCCn1c(=O)c(-c2c(Cl)cccc2Cl)cc2cnc(N)nc21", "C-src kinase (Homo sapiens)", "Y"],
  ["CCn1c(=O)c(-c2cc(C)cc(C)c2)cc2cnc(Nc3ccccc3)nc21", "C-src kinase (Homo sapiens)", "N"],
  ["Nc1ncc2cc(-c3c(Cl)cccc3Cl)c(=O)n(CC(=O)O)c2n1", "C-src kinase (Homo sapiens)", "Y"],
  ["CN(C)c1ncc2cc(-c3c(Cl)cccc3Cl)c(=O)n(C)c2n1", "C-src kinase (Homo sapiens)", "N"],
  ["CCn1c(=O)c(-c2c(Cl)cccc2Cl)cc2cnc(Nc3ccc(O)cc3)nc21", "C-src kinase (Homo sapiens)", "N"],
  ["CCCCn1c(=O)c(-c2c(Cl)cccc2Cl)cc2cnc(N)nc21", "C-src kinase (Homo sapiens)", "N"],
  ["Cn1c(=O)c(-c2c(Cl)cccc2Cl)cc2cnc(NCCCN3CCOCC3)nc21", "C-src kinase (Homo sapiens)", "N"],
  ["Cn1c(=O)c(-c2c(Cl)cccc2Cl)cc2cnc([S+](C)[O-])nc21 (centres unmarked)", "C-src kinase (Homo sapiens)", "N"],
  ["Cn1c(=O)c(-c2c(Cl)cccc2Cl)cc2cnc(S(C)(=O)=O)nc21", "C-src kinase (Homo sapiens)", "N"]
]}
